These measurements were taken from PubChem BioAssay AID652257.

molecular target: Protein arginine N-methyltransferase 1 (Homo sapiens) (UniProt Q99873); assay: human PRMT1 activity-probe blockers – biochemical, fluorescence polarization, primary screen (AID 652257); settings: recombinant PRMT1, activity-based probe fluorescence polarization; at 2.79 µM
Sequence (Q99873 whole entry, looked up): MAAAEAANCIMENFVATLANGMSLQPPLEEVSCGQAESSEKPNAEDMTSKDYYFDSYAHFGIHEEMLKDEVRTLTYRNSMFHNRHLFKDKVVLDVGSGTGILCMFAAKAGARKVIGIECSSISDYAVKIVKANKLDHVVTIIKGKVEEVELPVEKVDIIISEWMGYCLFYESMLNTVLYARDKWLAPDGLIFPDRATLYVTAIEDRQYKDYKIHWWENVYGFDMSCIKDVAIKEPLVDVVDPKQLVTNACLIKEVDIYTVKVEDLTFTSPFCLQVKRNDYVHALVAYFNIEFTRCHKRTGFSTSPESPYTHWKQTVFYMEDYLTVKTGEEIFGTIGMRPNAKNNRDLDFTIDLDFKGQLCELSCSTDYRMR
In all, about 370,000 compounds went through this assay and about 4,800 (1.3%) were called active.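 Rule for the calls: active = inhibition above about 21% made by adding two undisclosed values (limit read from the data); inactive = the rest.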 For the sample, actives were picked, then their nearest neighbours and some compounds at random.
The categories you may choose from are Y = active, N = inactive

Compound	Category label
O=C(COC(=O)Cc1ccccc1)Nc1ccc(F)cc1	N
COc1ccc(CCn2c(O)c(C=NC3CC3)c(=O)[nH]c2=O)cc1OC	N
COP(=O)(NS(=O)(=O)c1ccccc1)OC	N
COC(=O)C1=C(c2cc3ccccc3s2)C[C@@H]2CC[C@H]1N2C(=O)NCc1cccc2ccccc12	N
CC(C)CN1CCN(Cc2ccccc2C(F)(F)F)CC1CCO (stereo unspecified)	N
CC(=O)C1(O)CCC2C3CCC4=C(Cl)C(=O)CCC4(C)C3CCC21C (stereo unspecified)	N
c1ccc(N2Cc3ccccc3-n3nncc3C2)nc1	N
CCOc1ccc(-c2cc(C)[n+](CCN(CC)CC)c(-c3ccc(OCC)cc3)c2)cc1	N

Ask: Recorded test outcome, item "O=C1NC(=O)N(c2ccccc2)C(=O)/C1=C/c1ccc([N+](=O)[O-])s1"
Result: Y

Ask: Identify the outcome logged in this assay for the compound shown: "COc1cc(OC)cc(C(=O)NCCN2CCC3(CC2)C(=O)NCN3c2ccccc2)c1"
Result: N

Ask: Please indicate how the test categorized CCOC(=O)C1(Cc2ccc(Cl)cc2)CCN(C(C)CCn2cccn2)CC1 (stereo unspecified) .
Result: N
